For each record, write down the corresponding RP-LC retention time.
test: gradient 5% acetonitrile 3 min, to 50% in 2 min, to 85% in 15 min, held 3 min, 100 µL/min; settings: column: Zorbax Extend-C18 2.1 x 50 mm; eluents: water / acetonitrile, 0.1% formic acid
Hi! Could you send only the number? It should be in s, unit omitted.

Qu. Please report the recorded RP-LC retention time for CCc1ccccc1NC(=O)Cn1c(N2CCOCC2)nc(C)cc1=O .
Ans. 674

Qu. Repeat with Cc1nnc(N2CCC(C(=O)N3CCC(C(N)=O)CC3)CC2)c2nn(-c3ccccc3)c(C)c12
Ans. 599

Qu. // same read-out, input: COC(=O)c1ccc(-c2nc3cnccn3c2Nc2cccc(C(F)(F)F)c2)cc1
Ans. 945

Qu. Next entry: CCn1nnc2c(N3CCN(CC(=O)NC4CCCC4)CC3)ncnc21
Ans. 550

Qu. Please answer likewise for O=C(c1ccc(=O)oc1)N1CCN(Cc2nc(-c3ccccc3)cs2)CC1
Ans. 637

Qu. And then COc1cc(OC)cc(C(=O)NCC(=O)Nc2nc3ccccc3[nH]2)c1 , what is it?
Ans. 635

Qu. Would you mind doing O=S(=O)(c1ccc(F)cc1F)N1CCc2nc(-c3ccc(F)cc3)ncc2C1 as well?
Ans. 1110

Qu. Now try O=C(NCCc1ccc(Cl)cc1)c1nc(Cn2c(=O)oc3ccccc32)no1 .
Ans. 969

Qu. Same lookup for Cc1c(-c2nnc(C3CC3)o2)c(S(=O)(=O)N2CCN(C(C)C)CC2)c(C)n1C , please.
Ans. 610
